assay-method-text: Metabolic stability in cryopreserved human hepatocytes assessed as intrinsic clearance measured per 10^6 cells at 1 uM after 120 mins by LC-MS/MS analysis
Assay type: ADME, cell-based, Hepatocyte
condition-details: hepatocytes, 2 h, 1 µM
endpoint: CLH (µL/min/1e6 cells)

P = COc1cc(F)c(O[C@H]2CC[C@@](C)(C(=O)O)CC2)cc1C(=O)N[C@H]1[C@@H]2CC[C@@H](C2)[C@H]1C(=O)Nc1ccc(F)c(S(F)(F)(F)(F)F)c1
Q = COc1cc(F)c(O[C@H]2CC[C@@](C)(C(=O)O)CC2)cc1C(=O)N[C@@H]1[C@H]2CC[C@H](C2)[C@@H]1C(=O)Nc1ccc(F)c(S(F)(F)(F)(F)F)c1
[in] Between P and Q , which one shows the larger CLH value? Pick one; state its label.
[out] P
(P: 49 µL/min/1e6 cells, Q: 21 µL/min/1e6 cells)
